Target: UniProtKB P36896
Sequence (P36896 24-505): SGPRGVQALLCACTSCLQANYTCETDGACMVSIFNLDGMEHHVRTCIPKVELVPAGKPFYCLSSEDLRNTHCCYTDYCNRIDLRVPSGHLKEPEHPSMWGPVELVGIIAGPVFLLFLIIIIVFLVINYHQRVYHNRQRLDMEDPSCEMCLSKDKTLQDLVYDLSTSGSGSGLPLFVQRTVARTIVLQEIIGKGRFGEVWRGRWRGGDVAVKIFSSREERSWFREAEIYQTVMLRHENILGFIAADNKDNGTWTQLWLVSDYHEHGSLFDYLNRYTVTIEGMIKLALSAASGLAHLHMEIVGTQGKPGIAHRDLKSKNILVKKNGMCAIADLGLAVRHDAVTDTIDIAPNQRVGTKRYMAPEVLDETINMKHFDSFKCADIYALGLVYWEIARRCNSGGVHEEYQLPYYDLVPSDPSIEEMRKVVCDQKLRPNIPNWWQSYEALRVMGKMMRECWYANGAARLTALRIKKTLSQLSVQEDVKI
Experiment: TR-FRET enzymatic ALK kinase assay, ALK4
Item-by-item account of IC50

compound="CC(O)c1cccc(-c2cnn3cc(-c4ccc(C(F)(F)CN5CCCCC5)cc4)cnc23)c1 (stereo not shown) [Compound 127]" result="> 10 µM"
compound="CC(O)c1cccc(-c2cnn3cc(-c4ccc(C5CCCCN5)cc4)cnc23)c1 (stereo not shown) [Compound 135]" result="> 10 µM"
compound="C[S+](=O)([O-])c1cccc(-c2cnn3cc(-c4ccc(CCN5CCC6(CC5)CNC6)cc4)cnc23)c1 [Compound 178]" result="> 10 µM"
compound="C[C@@H]1CNC[C@H](C)N1c1ccc(-c2cnc3c(-c4ccc(C(=O)C(F)(F)F)c5ccccc45)cnn3c2)cc1 [Compound 30]" result="7.99 µM"
compound="CS(=O)(=O)c1cccc(-c2cnn3cc(-c4ccc(OC5(CN6CCNCC6)CC5)cc4)cnc23)c1 [Compound 169]" result="> 10 µM"

Return IC50 measured with UniProtKB P36896 given this compound: CN1CCC(c2ccc(-c3cnc4c(-c5cccc(S(C)(=O)=O)c5)cnn4c3)cc2)CC1 [Compound 91]
> 10 µM

Return IC50 measured with UniProtKB P36896 given this compound: CC[S+](=O)([O-])c1cccc(-c2cnn3cc(-c4ccc(N5[C@H](C)CNC[C@@H]5C)cc4)cnc23)c1 [Compound 104]
4.8 µM

Return IC50 measured with UniProtKB P36896 given this compound: NS(=O)(=O)c1ccc(-c2cnn3cc(-c4ccc(OC5(CN6CCCCC6)COC5)cc4)cnc23)c2ccccc12 [Compound 87]
> 10 µM

Return IC50 measured with UniProtKB P36896 given this compound: C[C@@H]1CNC[C@H](C)N1c1ccc(-c2cnc3c(-c4cccc(S(C)(=O)=O)c4)cnn3c2)cc1 [Compound 82]
3.2 µM

Return IC50 measured with UniProtKB P36896 given this compound: C[C@@H](O)c1cccc(-c2cnn3cc(-c4ccc(CCN5CCCC(O)C5)cc4)cnc23)c1 (stereo partly shown) [Compound 157]
> 10 µM

* * *

Target: ALK2 (Mus musculus)
Construct: The C2C12 cell line was selected for the measurement of ALK2 activity using BMP6 as the agonist; host or cells: C2C12
Sequence (P37172 21-509): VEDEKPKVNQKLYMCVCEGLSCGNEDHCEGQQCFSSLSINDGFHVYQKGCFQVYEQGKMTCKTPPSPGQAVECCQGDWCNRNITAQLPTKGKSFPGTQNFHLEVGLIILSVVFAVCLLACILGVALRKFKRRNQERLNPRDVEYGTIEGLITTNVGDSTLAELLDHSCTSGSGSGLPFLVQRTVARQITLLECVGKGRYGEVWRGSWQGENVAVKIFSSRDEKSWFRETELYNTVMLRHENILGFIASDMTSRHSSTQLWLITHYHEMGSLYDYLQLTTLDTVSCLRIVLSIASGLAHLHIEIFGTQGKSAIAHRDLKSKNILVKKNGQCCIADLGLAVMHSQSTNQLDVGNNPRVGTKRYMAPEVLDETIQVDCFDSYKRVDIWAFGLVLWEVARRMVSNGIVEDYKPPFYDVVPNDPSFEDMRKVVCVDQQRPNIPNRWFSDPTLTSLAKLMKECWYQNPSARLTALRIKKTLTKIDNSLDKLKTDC
Test: HTRF pSMAD1 cell-based ALK2 assay (C2C12 cells, BMP6 as agonist)
Conditions: cell-based assay, BMP6; read-out: Cell IC50 BMP6
pIC50: −log10 of the molar value.
REPORTED METRIC: pIC50

1 = C[C@@H]1CNC[C@H](C)N1c1ccc(-c2cnc3c(-c4cccc5c(C(N)=O)cccc45)cnn3c2)cc1
2 = CN1CCC(c2ccc(-c3cnc4c(-c5cccc(C(C)(C)O)c5)cnn4c3)cc2)CC1
Could you check which of 1 and 2 has a smaller value for pIC50? Field: selected label. Fill in the label of the entry you choose.
2
(2: 6.58, 1: 8.40)

a = NC(=O)c1cccc2c(-c3cnn4cc(-c5ccc(N6C[C@@H]7C[C@H]6CN7)cc5)cnc34)cccc12
b = NS(=O)(=O)c1ccc(-c2cnn3cc(-c4ccc(OC5(CN6CCCCC6)COC5)cc4)cnc23)c2ccccc12
Sort a and b by pIC50 descending and give the first. Field: selected label. Fill in the label of the entry you choose.
a

P = C[C@@H]1CNC[C@H](C)N1c1ccc(-c2cnc3c(-c4cccc(CS(N)(=O)=O)c4)cnn3c2)cc1
Q = CC(O)c1cccc(-c2cnn3cc(-c4ccc(CN5CCCCC5)cc4)cnc23)c1 (stereo not shown)
Sort P and Q by pIC50 descending and give the first. Field: selected label. Fill in the label of the entry you choose.
Q

P = NC(=O)c1ccc(-c2cnn3cc(-c4ccc(N5C[C@@H]6C[C@H]5CN6)cc4)cnc23)c2ccccc12
Q = CC(C)(CN1CCCCC1)Oc1ccc(-c2cnc3c(-c4cccc(S(C)(=O)=O)c4)cnn3c2)cc1
R = CS(=O)(=O)c1cccc(-c2cnn3cc(-c4ccc(C(F)(F)CN5CCCC5)cc4)cnc23)c1
S = C[S+](=O)([O-])c1cccc(-c2cnn3cc(-c4ccc(OC5(CN6CCCCC6)COC5)cc4)cnc23)c1
T = CN1CCN(c2ccc(-c3cnc4c(-c5ccc(S(N)(=O)=O)c6ccccc56)cnn4c3)cn2)CC1
Please give the order of these compounds when sorted by pIC50, largest value leading. // format: requested-order list of labels
S, P, Q, R, T
(S: 7.96, P: 7.26, Q: 6.69, R: 5.98, T: 4.92)

I = C[C@@H]1CNC[C@H](C)N1c1ccc(-c2cnc3c(-c4cccc(C[S+](C)(=O)[O-])c4)cnn3c2)cc1
II = CS(=O)(=O)c1cccc(-c2cnn3cc(-c4ccc(C(F)(F)CN5CCOCC5)cc4)cnc23)c1
III = CN1CCC(c2ccc(-c3cnc4c(-c5cccc(S(C)(=O)=O)c5)cnn4c3)cc2)CC1
Please give the order of these compounds when sorted by pIC50, largest value leading. // format: requested-order list of labels
I, III, II
(I: 7.18, III: 6.75, II: 6.08)

a = CC(O)c1cccc(-c2cnn3cc(-c4ccc(N5[C@H](C)CNC[C@@H]5C)cc4)cnc23)c1 (stereo partly shown)
b = CNS(=O)(=O)c1cccc2c(-c3cnn4cc(-c5ccc(N6[C@H](C)CNC[C@@H]6C)cc5)cnc34)cccc12
c = O=C(O)c1cccc2c(-c3cnn4cc(-c5ccc(N6CCNCC6)cc5)cnc34)cccc12
# rank by pIC50, ascending (min first) // format: requested-order list of labels
c, b, a

a = CC(C)(O)c1cccc(-c2cnn3cc(-c4ccc(CCN5CCCCC5)cc4)cnc23)c1
b = C[C@@H]1CNC[C@H](C)N1c1ccc(-c2cnc3c(-c4ccc([S+](N)(=O)[O-])c(C(F)(F)F)c4)cnn3c2)cc1
Sort a and b by pIC50 descending and give the first. Field: selected label. Fill in the label of the entry you choose.
b
(b: 6.50, a: 6.29)

* * *

Biological target: ALK6 (Homo sapiens)
Sequence (O00238 14-502): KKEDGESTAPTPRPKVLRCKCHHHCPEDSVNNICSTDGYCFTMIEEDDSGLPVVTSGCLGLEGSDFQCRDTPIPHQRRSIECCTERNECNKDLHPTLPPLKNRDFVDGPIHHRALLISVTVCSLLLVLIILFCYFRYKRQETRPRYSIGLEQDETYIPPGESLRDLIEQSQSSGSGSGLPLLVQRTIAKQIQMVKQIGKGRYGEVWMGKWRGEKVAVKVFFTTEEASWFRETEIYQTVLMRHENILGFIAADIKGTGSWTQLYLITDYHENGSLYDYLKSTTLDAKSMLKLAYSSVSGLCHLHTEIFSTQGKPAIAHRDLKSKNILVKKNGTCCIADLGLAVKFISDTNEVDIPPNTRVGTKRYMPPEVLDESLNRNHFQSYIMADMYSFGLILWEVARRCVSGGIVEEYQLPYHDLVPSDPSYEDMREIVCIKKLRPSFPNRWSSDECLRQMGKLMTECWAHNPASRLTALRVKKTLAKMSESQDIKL
Experiment: TR-FRET enzymatic ALK kinase assay, ALK6
pIC50: −log10 of the molar value.
REPORTED METRIC: pIC50

The examples below pair each entry with its known result.
molecule="NS(=O)(=O)c1cccc(-c2cnn3cc(-c4ccc(CCN5CCCCC5)cc4)cnc23)c1 [Compound 75]" reported_metric=pIC50 result="< 5.00"
molecule="N=C(N)c1ccc(-c2cnn3cc(-c4ccc(N5CCNCC5)cc4)cnc23)cc1 [Compound 14]" reported_metric=pIC50 result=4.77

May I ask what pIC50 has been recorded for C[S+](=O)([O-])c1cccc(-c2cnn3cc(-c4ccc(OC5(CN6CC(F)(F)C6)CC5)cc4)cnc23)c1 [Compound 176] ?
< 5.00

* * *

Assay: Cell-based assay, TGFb1 (Cell IC50)
pIC50: −log10 of the molar value.
REPORTED METRIC: pIC50

The examples below pair each entry with its known result.
compound="CC(O)c1cccc(-c2cnn3cc(-c4ccc(C5CCNCC5)cc4)cnc23)c1 (stereo not shown)" numeric_value=5.15
compound=C[C@@H]1CNC[C@H](C)N1c1ccc(-c2cnc3c(-c4ccc(C#N)c5ccccc45)cnn3c2)cc1 numeric_value=5.35

I = Fc1ccc(-c2cnn3cc(-c4ccc(CCN5CCCCC5)cc4)cnc23)cc1-c1nnn[nH]1
II = CNC(=O)c1ccc(-c2cnn3cc(-c4ccc(N5CCNCC5)cc4)cnc23)c2ccccc12
Sort I and II by pIC50 descending and give the first. Field: selected label. Fill in the label of the entry you choose.
II
(II: 4.82, I: 4.00)

* * *

Item-by-item account of pIC50
Biological target: UniProt O00238
Test: TR-FRET enzymatic ALK kinase assay, ALK6
pIC50: −log10 of the molar value.

May I ask what pIC50 has been recorded for `C[C@@H]1CNC[C@H](C)N1c1ccc(-c2cnc3c(-c4ccc(N)c(S(N)(=O)=O)c4)cnn3c2)cc1` ?
< 5.00

May I ask what pIC50 has been recorded for `C[C@@H]1CNC[C@H](C)N1c1ccc(-c2cnc3c(-c4cccc5c(S(=O)(=O)N(C)C)cccc45)cnn3c2)cc1` ?
< 5.00

May I ask what pIC50 has been recorded for CS(=O)(=O)c1cccc(-c2cnn3cc(-c4ccc(CCN5CCCC(O)C5)cc4)cnc23)c1 (stereo not drawn) ?
< 5.00

May I ask what pIC50 has been recorded for `NS(=O)(=O)c1ccc(-c2cnn3cc(-c4ccc(C5(O)CCNCC5)nc4)cnc23)c2ccccc12` ?
< 5.00

May I ask what pIC50 has been recorded for `NS(=O)(=O)c1ccc(-c2cnn3cc(-c4ccc(OC5(CN6CCCCC6)COC5)cc4)cnc23)c2ccccc12` ?
< 5.00

May I ask what pIC50 has been recorded for `NC1(c2ccc(-c3cnc4c(-c5ccc(S(N)(=O)=O)c6ccccc56)cnn4c3)cc2)CNC1` ?
< 5.00

May I ask what pIC50 has been recorded for `CS(=O)(=O)c1cccc(-c2cnn3cc(-c4ccc(CCN5CCCCC5)cc4)cnc23)c1` ?
< 5.00

May I ask what pIC50 has been recorded for `CC(C)(CN1CCCCC1)Oc1ccc(-c2cnc3c(-c4cccc5c(C(N)=O)cccc45)cnn3c2)cc1` ?
6.74

May I ask what pIC50 has been recorded for CS(=O)(=O)c1cccc(-c2cnn3cc(-c4ccc(C5CCNC5)cc4)cnc23)c1 (stereo not drawn) ?
< 5.00
